METHOD DESCRIPTION: Canine pharmacokinetic (PK) study, single IV or oral dose
CONDITION LABEL: dog, in vivo, iv, 0.2 mg/kg
What clearance was measured for each of the following?
Give bare numbers, in mL/min/kg.

INPUT SMILES | MEASURED NUMBER
CC(C)C[C@H]1C(=O)O[C@H](Cc2ccc(Cn3nc(C(F)(F)F)cc3C(F)(F)F)cc2)C(=O)N(C)[C@@H](CC(C)C)C(=O)O[C@H](C)C(=O)N(C)[C@@H](CC(C)C)C(=O)O[C@H](Cc2ccc(Cn3nc(C(F)(F)F)cc3C(F)(F)F)cc2)C(=O)N(C)[C@@H](CC(C)C)C(=O)O[C@H](C)C(=O)N1C | 0.05
CC(C)C[C@H]1C(=O)O[C@H](Cc2ccc(CN3CCOc4ccccc43)cc2)C(=O)N(C)[C@@H](CC(C)C)C(=O)O[C@H](C)C(=O)N(C)[C@@H](CC(C)C)C(=O)O[C@H](Cc2ccc(CN3CCOc4ccccc43)cc2)C(=O)N(C)[C@@H](CC(C)C)C(=O)O[C@H](C)C(=O)N1C | 0.1

# map each compound to its clearance
1. CCOc1cnn(Cc2ccc(C[C@H]3OC(=O)[C@H](CC(C)C)N(C)C(=O)[C@@H](C)OC(=O)[C@H](CC(C)C)N(C)C(=O)[C@@H](Cc4ccc(Cn5cc(OCC)cn5)cc4)OC(=O)[C@H](CC(C)C)N(C)C(=O)[C@@H](C)OC(=O)[C@H](CC(C)C)N(C)C3=O)cc2)c1
2. CC(C)C[C@H]1C(=O)O[C@H](Cc2ccc(Cn3cc(OC(C)C)cn3)cc2)C(=O)N(C)[C@@H](CC(C)C)C(=O)O[C@H](C)C(=O)N(C)[C@@H](CC(C)C)C(=O)O[C@H](Cc2ccc(Cn3cc(OC(C)C)cn3)cc2)C(=O)N(C)[C@@H](CC(C)C)C(=O)O[C@H](C)C(=O)N1C
3. CC(C)C[C@H]1C(=O)O[C@H](Cc2ccc(Cn3nccc3C3CC3)cc2)C(=O)N(C)[C@@H](CC(C)C)C(=O)O[C@H](C)C(=O)N(C)[C@@H](CC(C)C)C(=O)O[C@H](Cc2ccc(Cn3nccc3C3CC3)cc2)C(=O)N(C)[C@@H](CC(C)C)C(=O)O[C@H](C)C(=O)N1C
4. CC(C)C[C@H]1C(=O)O[C@H](Cc2ccc(Cn3cccn3)cc2)C(=O)N(C)[C@@H](CC(C)C)C(=O)O[C@H](C)C(=O)N(C)[C@@H](CC(C)C)C(=O)O[C@H](Cc2ccc(Cn3cccn3)cc2)C(=O)N(C)[C@@H](CC(C)C)C(=O)O[C@H](C)C(=O)N1C
5. CC(C)C[C@H]1C(=O)O[C@H](Cc2ccc(Cn3ccc(C(F)(F)F)n3)cc2)C(=O)N(C)[C@@H](CC(C)C)C(=O)O[C@H](C)C(=O)N(C)[C@@H](CC(C)C)C(=O)O[C@H](Cc2ccc(Cn3ccc(C(F)(F)F)n3)cc2)C(=O)N(C)[C@@H](CC(C)C)C(=O)O[C@H](C)C(=O)N1C

Outgoing:
[15.5, 2.4, 6, 14, 1]

---

METHOD DESCRIPTION: Canine pharmacokinetic (PK) study, single IV or oral dose
CONDITION LABEL: dog, in vivo, iv, 0.2 mg/kg
PROPERTY NAME: Vd (L/kg)
Give bare numbers, in L/kg.

INPUT SMILES | MEASURED NUMBER
CC(C)C[C@H]1C(=O)O[C@H](Cc2ccc(Cn3nccc3C3CC3)cc2)C(=O)N(C)[C@@H](CC(C)C)C(=O)O[C@H](C)C(=O)N(C)[C@@H](CC(C)C)C(=O)O[C@H](Cc2ccc(Cn3nccc3C3CC3)cc2)C(=O)N(C)[C@@H](CC(C)C)C(=O)O[C@H](C)C(=O)N1C | 5.6
CC(C)C[C@H]1C(=O)O[C@H](Cc2ccc(Cn3cc(Br)cn3)cc2)C(=O)N(C)[C@@H](CC(C)C)C(=O)O[C@H](C)C(=O)N(C)[C@@H](CC(C)C)C(=O)O[C@H](Cc2ccc(Cn3cc(Br)cn3)cc2)C(=O)N(C)[C@@H](CC(C)C)C(=O)O[C@H](C)C(=O)N1C | 3

# next molecule below
Per the records, this molecule ( `CC(C)C[C@H]1C(=O)O[C@H](Cc2ccc(Cn3ccc(-c4ccccc4)n3)cc2)C(=O)N(C)[C@@H](CC(C)C)C(=O)O[C@H](C)C(=O)N(C)[C@@H](CC(C)C)C(=O)O[C@H](Cc2ccc(Cn3ccc(-c4ccccc4)n3)cc2)C(=O)N(C)[C@@H](CC(C)C)C(=O)O[C@H](C)C(=O)N1C` ) has Vd equal to 7.58
